- target entity: Torsin-1A-interacting protein 2 (Homo sapiens)
- assay overview: LULL1 binders on small-molecule microarray, primary screen, cell lysate, human LULL1 lysate, 635/667 nm fluorescence (AID 1092);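 also: probe is lysate of COS7 cells overexpressing human LULL1; score merges per-feature 667 nm fluorescence with signal-to-noise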
- condition context: hLULL1 lysate binding, 635 nm fluorescence, higher = more signal
Rule: 1.0 for composite z-score not less than 3, 0.0 for anything less.

>  <molecule>
Cc1ccc(S[C@]2(C(=O)NC3CC3)CC(=O)N(Cc3ccccc3Cl)[C@@H]2c2ccc(CO)cc2I)cc1

>  <class>
1.0

$$$$
>  <molecule>
C=CCOC(=O)[C@@H]1[C@H]2C(=O)O[C@H](c3ccccc3)[C@H](c3ccccc3)N2[C@H](c2ccc(OCCOC(=O)[C@H]3C[C@H]4C(=O)N[C@@H](CC(C)C)C(=O)N4[C@H]3c3ccc(O)cc3)cc2)[C@@]12C(=O)Nc1ccc(I)cc12

>  <class>
0.0

$$$$
>  <molecule>
COCCCNC(=O)[C@]1(Cc2ccccc2CN=[N+]=[N-])N=C(c2ccc(OCCCO)cc2)O[C@@H]1c1ccccc1

>  <class>
0.0

$$$$
>  <molecule>
COCCOC(=O)N1C(=O)[C@@]2(c3cc(C#CC4=CCCCC4)ccc31)[C@H](C(=O)N1CCN(c3ncccn3)CC1)[C@H]1C(=O)O[C@H](c3ccccc3)[C@H](c3ccccc3)N1[C@@H]2c1ccc(O)cc1

>  <class>
0.0

$$$$
>  <molecule>
O=C(CS)NCCCCCCNC(=O)[C@H]1C[C@H]2C(=O)N[C@@H](Cc3ccccc3)C(=O)N2[C@H]1c1cccc(OCCO)c1

>  <class>
0.0

$$$$
>  <molecule>
COC(=O)C[C@H]1O[C@]2(C(=O)N(C)c3ccccc32)[C@@H](C)[C@@H]1[Si](C)(C)c1ccc(C)cc1

>  <class>
0.0

$$$$
>  <molecule>
CC(=O)n1cc(C(O)C2C=CC3C(=O)N(c4ccccc4)C(=O)C3N2Nc2ccccc2)c2ccccc21 (stereo not drawn)

>  <class>
0.0

$$$$
>  <molecule>
CC=CC(O)C1C=CC2C(=O)N(c3ccccc3)C(=O)C2N1Nc1ccc([N+](=O)[O-])cc1 (stereo not drawn)

>  <class>
0.0

$$$$
>  <molecule>
C=CCNC(=O)[C@@H]1[C@H]2C(=O)O[C@H](c3ccccc3)[C@H](c3ccccc3)N2[C@H](c2ccc(OCCO)cc2)[C@@]12C(=O)N(C(=O)OCCOC)c1ccc(C#CC3=CCCCC3)cc12

>  <class>
0.0

$$$$
>  <molecule>
CCOc1cc(C(O)C2C=CC3C(=O)N(C4CCCCC4)C(=O)C3N2Nc2ccc(OC)cc2)ccc1O (stereo not drawn)

>  <class>
1.0

$$$$
>  <molecule>
COC(=O)[C@@]1(Cc2ccccc2)[C@H]2c3cc(C(=O)N4CCCC4)n(Cc4ccsc4Br)c3C[C@H]2CN1C(=O)c1ccccc1

>  <class>
1.0

$$$$
>  <molecule>
CCOC(=O)C[C@H]1[C@H](OC(=O)c2ccc(C(=O)c3ccccc3)cc2)[C@@H](NC(=O)c2ccc3ccccc3c2)c2cc(OCCCO)ccc2N1C(=O)c1ccccc1

>  <class>
0.0

$$$$
>  <molecule>
CC(C)CN1C(=O)[C@@]2(Cc3ccccc31)c1ccccc1C(=O)N(Cc1ccccc1C(F)(F)F)[C@H]2c1ccc(CO)cc1

>  <class>
0.0

$$$$

====

- assay overview: inhibitors of hydroxyurea-induced Chk1 phosphorylation, primary screen, imaging, HeLa, phospho-Chk1 nuclear intensity (AID 1187); also: test concentration not given here
- condition context: hydroxyurea-induced phospho-Chk1 immunofluorescence imaging, higher = more signal

>  <molecule>
CC(=O)n1cc(C(O)C2C=CC3C(=O)N(c4ccccc4)C(=O)C3N2Nc2ccccc2)c2ccccc21 (stereo unspecified)

>  <z-score>
0.355

$$$$
>  <molecule>
C=C(CCCC)/C(=C/C[C@@H](OC(C)=O)c1ccc(CO)o1)c1cc(C(=O)OC)ccc1OC

>  <z-score>
0.471

$$$$
>  <molecule>
C=CC1c2cc(O)c(OC)cc2CCN1Cc1sc2ccccc2c1Cl (stereo unspecified)

>  <z-score>
-0.0459

$$$$
>  <molecule>
CN1C(=O)[C@@]2(CCS(=O)(=O)c3ccccc3)N=C(c3ccc(OCCCO)cc3)O[C@H]2c2ccccc21

>  <z-score>
0.146

$$$$
>  <molecule>
CCOC(=O)C[C@H]1[C@H](OC(=O)c2ccccc2-c2ccccc2)[C@@H](NC(=O)c2ccc3ccccc3n2)c2cc(OCCCO)ccc2N1C(=O)c1ccc2ccccc2n1

>  <z-score>
-0.588

$$$$
>  <molecule>
O=C1NC(=O)C2C1C=CC(C(O)c1ccc(Br)cc1)N2Nc1ccccn1 (stereo unspecified)

>  <z-score>
0.784

$$$$
>  <molecule>
COCCOC(=O)N1C(=O)[C@@]2(c3cc(C#CC4=CCCCC4)ccc31)[C@H](C(=O)N1CCN(c3ncccn3)CC1)[C@H]1C(=O)O[C@H](c3ccccc3)[C@H](c3ccccc3)N1[C@@H]2c1ccc(O)cc1

>  <z-score>
0.0658

$$$$
>  <molecule>
C#CCNC(=O)[C@H](Cc1ccccc1)NC(=O)[C@@H](N=[N+]=[N-])C(C)C

>  <z-score>
0.815

$$$$
>  <molecule>
NC(=O)N1C(=O)C2C(C1=O)C1C=C(CCCO)C2C(c2cccs2)N1Cc1cc2c(cc1Br)OCO2 (stereo unspecified)

>  <z-score>
0.509

$$$$
>  <molecule>
CN1C(=O)C2C=CC(C(O)C3CCCCC3)N(N3CCCCC3)C2C1=O (stereo unspecified)

>  <z-score>
0.332

$$$$
>  <molecule>
CN(C)C(=O)[C@]1(CCC(=O)OC(C)(C)C)N=C(c2ccc(OCCCO)cc2)O[C@@H]1c1ccccc1

>  <z-score>
0.277

$$$$
>  <molecule>
CC(C)C(CO)N1C(=O)[C@]2(C)C3C(=O)OCCC/C=C\[C@H]3OC23C=CCN(c2ccc(Cl)cc2)C(=O)[C@@H]13 (stereo partly specified)

>  <z-score>
-0.181

$$$$
>  <molecule>
Cc1ccc(S[C@]2(C(=O)NC3CC3)CC(=O)N(Cc3ccccc3Cl)[C@@H]2c2ccc(CO)cc2I)cc1

>  <z-score>
0.858

$$$$
>  <molecule>
CC=CC(O)C1C=CC2C(=O)N(C)C(=O)C2N1N1CCCCC1 (stereo unspecified)

>  <z-score>
-0.297

$$$$
>  <molecule>
O=C1O[C@@H](c2ccccc2)[C@@H](c2ccccc2)N2[C@@H](c3ccc(O)cc3)[C@]3(C(=O)Nc4ccccc43)[C@@H](C(=O)Nc3nc4ccccc4s3)[C@H]12

>  <z-score>
-0.259

$$$$
>  <molecule>
Cc1c(NC(=O)/C(C#N)=C/C=C/c2ccccc2[N+](=O)[O-])c(=O)n(-c2ccccc2)n1C

>  <z-score>
0.721

$$$$

The values you see were collected from PubChem BioAssay.
